Each entry below lists one item and its recorded EC50 value.
test system: T. b. brucei (Squib 427 strain); assay: In vitro activity against T. b. brucei; type: cell-based; settings: Trypanosoma brucei, read-out: T. b. bruc. EC50
Report only the number, with the unit µM understood.

Some solved entries appear below for comparison.
structure	readout.units	EC50
Cc1ncnc2c1c(C#CC(C)C)cn2[C@@H]1O[C@H](CO)[C@@H](O)[C@H]1O	µM	23.5
CCc1cn([C@@H]2O[C@H](CO)[C@@H](O)[C@H]2O)c2ncncc12	µM	1.54
Cc1ncnc2c1c(C#CC1CC1)cn2[C@@H]1O[C@H](CO)[C@@H](O)[C@H]1O	µM	1.36

Moving on to the next molecule.
The molecule listed as C=C(C)c1cn([C@@H]2O[C@H](CO)[C@@H](O)[C@H]2O)c2ncnc(C)c12 shows EC50 equal to 0.5

###

Each entry below lists one item and its recorded remaining at 0 h value.
assay: Microsomal stability assay, human; format: in vitro ADME; conditions: pooled human liver microsomes (microsomal (S9) fractions), % remaining parent compound, UGT Enz. (Phase-II), 0 min
Report only the number, with the unit % understood.

compound	readout.units	reported.value
Cc1ncnc2c1c(Cl)cn2[C@@H]1O[C@H](CO)[C@@H](O)[C@H]1O [compound 7]	%	100

The compound listed as CCc1cn([C@@H]2O[C@H](CO)[C@@H](O)[C@H]2O)c2ncnc(C)c12 [compound 13] shows remaining at 0 h equal to 100

###

Each entry below lists one item and its recorded CC50 at 3 days value.
experiment: MRC-5SV2 cytotoxicity; type: cell-based, human; conditions: human, MRC-5SV2 cells, MRC-5 CC50, MRC-5SV2 cells, 3 days incubation

Some solved entries appear below for comparison.
structure	recorded.metric	reported.value
Cc1ncnc2c1c(C1=CCOCC1)cn2[C@@H]1O[C@H](CO)[C@@H](O)[C@H]1O	CC50 at 3 days	> 64 µM
Cc1ncnc2c1c(C1CCCC1)cn2[C@@H]1O[C@H](CO)[C@@H](O)[C@H]1O	CC50 at 3 days	> 64 µM
Cc1cn([C@@H]2O[C@H](CO)[C@@H](O)[C@H]2O)c2ncnc(C)c12	CC50 at 3 days	> 64 µM

The compound listed as Cc1ncnc2c1c(C1=CCCCC1)cn2[C@@H]1O[C@H](CO)[C@@H](O)[C@H]1O shows CC50 at 3 days equal to > 64 µM

The compound listed as Cc1ncnc2c1c(C#CC1CC1)cn2[C@@H]1O[C@H](CO)[C@@H](O)[C@H]1O shows CC50 at 3 days equal to 27.5 µM

The compound listed as Cc1ncnc2c1c(F)cn2[C@@H]1O[C@H](CO)[C@@H](O)[C@H]1O shows CC50 at 3 days equal to 0.3 µM

The compound listed as CC(C)=Cc1cn([C@@H]2O[C@H](CO)[C@@H](O)[C@H]2O)c2ncnc(C)c12 shows CC50 at 3 days equal to > 64 µM

The compound listed as Cc1ncnc2c1c(/C=C/c1ccccc1)cn2[C@@H]1O[C@H](CO)[C@@H](O)[C@H]1O shows CC50 at 3 days equal to 26.6 µM

The compound listed as Cc1ncnc2c1c(Br)cn2[C@@H]1O[C@H](CO)[C@@H](O)[C@H]1O shows CC50 at 3 days equal to 39.6 µM

The compound listed as Cc1ncnc2c1c(CCC1CC1)cn2[C@@H]1O[C@H](CO)[C@@H](O)[C@H]1O shows CC50 at 3 days equal to > 64 µM

The compound listed as CCc1cn([C@@H]2O[C@H](CO)[C@@H](O)[C@H]2O)c2ncnc(N)c12 shows CC50 at 3 days equal to 50.4 µM

The compound listed as Cc1ncnc2c1c(Cl)cn2[C@@H]1O[C@H](CO)[C@@H](O)[C@H]1O shows CC50 at 3 days equal to 54.8 µM

The compound listed as CCc1cn([C@@H]2O[C@H](CO)[C@@H](O)[C@H]2O)c2ncncc12 shows CC50 at 3 days equal to > 64 µM

The compound listed as Cc1ncnc2c1c(C#CC(C)C)cn2[C@@H]1O[C@H](CO)[C@@H](O)[C@H]1O shows CC50 at 3 days equal to > 64 µM

The compound listed as CCCCCCc1cn([C@@H]2O[C@H](CO)[C@@H](O)[C@H]2O)c2ncnc(C)c12 shows CC50 at 3 days equal to > 64 µM

The compound listed as Cc1ncnc2c1c(CCc1ccccc1)cn2[C@@H]1O[C@H](CO)[C@@H](O)[C@H]1O shows CC50 at 3 days equal to > 64 µM

###

assay: Microsomal stability assay, hamster; type: in vitro ADME; conditions: hamster microsomal (S9) fractions, % remaining parent compound, CYP – NADPH (Phase-I), 0 min
Each entry below lists one item and its recorded remaining at 0 h value.
Report only the number, with the unit % understood.

The molecule listed as CCc1cn([C@@H]2O[C@H](CO)[C@@H](O)[C@H]2O)c2ncnc(C)c12 shows remaining at 0 h equal to 100

The molecule listed as Cc1ncnc2c1c(Cl)cn2[C@@H]1O[C@H](CO)[C@@H](O)[C@H]1O shows remaining at 0 h equal to 100

###

assay: Microsomal stability assay, human; type: in vitro ADME; conditions: pooled human liver microsomes (microsomal (S9) fractions), % remaining parent compound, CYP – NADPH (Phase-I), 60 min
Each entry below lists one item and its recorded remaining at 1 h value.
Report only the number, with the unit % understood.

structure	remaining at 1 h, %
CCc1cn([C@@H]2O[C@H](CO)[C@@H](O)[C@H]2O)c2ncnc(C)c12	96

The molecule listed as Cc1ncnc2c1c(Cl)cn2[C@@H]1O[C@H](CO)[C@@H](O)[C@H]1O shows remaining at 1 h equal to 96

###

assay: MRC-5SV2 cytotoxicity; type: cell-based, human; conditions: human, MRC-5SV2 cells, MRC-5 CC50, MRC-5SV2 cells, 3 days incubation
recorded.metric: CC50 at 3 days

Some solved entries appear below for comparison.
structure	CC50 at 3 days
Cc1ncnc2c1c(-c1ccccc1)cn2[C@@H]1O[C@H](CO)[C@@H](O)[C@H]1O	> 64 µM
Cc1ncnc2c1c(C(C)C)cn2[C@@H]1O[C@H](CO)[C@@H](O)[C@H]1O	0.3 µM

The compound listed as CCCCC#Cc1cn([C@@H]2O[C@H](CO)[C@@H](O)[C@H]2O)c2ncnc(C)c12 shows CC50 at 3 days equal to 7.58 µM

The compound listed as C=C(C)c1cn([C@@H]2O[C@H](CO)[C@@H](O)[C@H]2O)c2ncnc(C)c12 shows CC50 at 3 days equal to 1.49 µM

The compound listed as CCCC#Cc1cn([C@@H]2O[C@H](CO)[C@@H](O)[C@H]2O)c2ncnc(C)c12 shows CC50 at 3 days equal to > 64 µM

The compound listed as CCCCCc1cn([C@@H]2O[C@H](CO)[C@@H](O)[C@H]2O)c2ncnc(C)c12 shows CC50 at 3 days equal to > 64 µM

The compound listed as Cc1ncnc2c1c(C1CCCCC1)cn2[C@@H]1O[C@H](CO)[C@@H](O)[C@H]1O shows CC50 at 3 days equal to > 64 µM

The compound listed as C=Cc1cn([C@@H]2O[C@H](CO)[C@@H](O)[C@H]2O)c2ncnc(C)c12 shows CC50 at 3 days equal to > 64 µM

The compound listed as Cc1ncnc2c1c(C1CCOCC1)cn2[C@@H]1O[C@H](CO)[C@@H](O)[C@H]1O shows CC50 at 3 days equal to > 64 µM

###

Each entry below lists one item and its recorded remaining at 0.25 h value.
experiment: Microsomal stability assay, human; assay type: in vitro ADME; settings: pooled human liver microsomes (microsomal (S9) fractions), % remaining parent compound, UGT Enz. (Phase-II), 15 min
Report only the number, with the unit % understood.

structure	reported.value
CCc1cn([C@@H]2O[C@H](CO)[C@@H](O)[C@H]2O)c2ncnc(C)c12	105

The compound listed as Cc1ncnc2c1c(Cl)cn2[C@@H]1O[C@H](CO)[C@@H](O)[C@H]1O shows remaining at 0.25 h equal to 102

###

Each entry below lists one item and its recorded CC50 value.
tested on: MRC-5SV2 cells; experiment: MRC-5SV2 cytotoxicity; type: cell-based, human; details: read-out: MRC-5 CC50, 3 days incubation

structure	CC50
CCc1cn([C@@H]2O[C@H](CO)[C@@H](O)[C@H]2O)c2ncnc(N)c12	> 64 µM

Moving on to the next compound.
The compound listed as CCOc1ncnc2c1c(CC)cn2[C@@H]1O[C@H](CO)[C@@H](O)[C@H]1O shows CC50 equal to > 64 µM

###

test: Microsomal stability assay, hamster; type: in vitro ADME; conditions: hamster microsomal (S9) fractions, % remaining parent compound, CYP – NADPH (Phase-I), 15 min
recorded.metric: remaining at 0.25 h

structure	remaining at 0.25 h
Cc1ncnc2c1c(Cl)cn2[C@@H]1O[C@H](CO)[C@@H](O)[C@H]1O	95%

Moving on to the next compound.
The compound listed as CCc1cn([C@@H]2O[C@H](CO)[C@@H](O)[C@H]2O)c2ncnc(C)c12 shows remaining at 0.25 h equal to 93%
